From: ChEMBL document CHEMBL4673403

molecular target: Hematopoietic prostaglandin D synthase (Homo sapiens, UniProt O60760); test: Binding affinity to recombinant human HPGDS expressed in Escherichia coli BL21 (DE3) measured after 1 hr by fluorescence polarization assay
Sequence (O60760 whole entry): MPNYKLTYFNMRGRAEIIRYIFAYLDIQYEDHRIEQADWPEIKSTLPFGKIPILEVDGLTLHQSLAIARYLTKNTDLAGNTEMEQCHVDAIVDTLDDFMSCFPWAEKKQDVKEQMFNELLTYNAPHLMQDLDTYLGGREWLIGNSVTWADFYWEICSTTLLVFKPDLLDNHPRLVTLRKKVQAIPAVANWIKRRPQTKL
pIC50: −log10 of the molar value.

>  <compound>
O=C(Nc1ccc(N2CCC(C(=O)N3CCOCC3)CC2)cc1)c1cnc(Oc2ccccc2)nc1

>  <pIC50>
6.49

$$$$
>  <compound>
O=C1CCC(N2C(=O)c3cccc(NCCOCCOCCOCCOCCOCCC(=O)N4CCN(C(=O)C5CCN(c6ccc(NC(=O)c7cnc(Oc8ccccc8)nc7)cc6)CC5)CC4)c3C2=O)C(=O)N1 (stereo not drawn)

>  <pIC50>
6.49

$$$$
>  <compound>
CN1C(=O)CCC(N2C(=O)c3cccc(NCCOCCOCCOCCOCCOCCC(=O)N4CCN(C(=O)C5CCN(c6ccc(NC(=O)c7cnc(Oc8ccccc8)nc7)cc6)CC5)CC4)c3C2=O)C1=O (stereo not drawn)

>  <pIC50>
6.49

$$$$
